# subject_of_test: T1, factor XIIIa (Homo sapiens, UniProt P00488)
# T1 sequence (P00488 39-732 limits assumed): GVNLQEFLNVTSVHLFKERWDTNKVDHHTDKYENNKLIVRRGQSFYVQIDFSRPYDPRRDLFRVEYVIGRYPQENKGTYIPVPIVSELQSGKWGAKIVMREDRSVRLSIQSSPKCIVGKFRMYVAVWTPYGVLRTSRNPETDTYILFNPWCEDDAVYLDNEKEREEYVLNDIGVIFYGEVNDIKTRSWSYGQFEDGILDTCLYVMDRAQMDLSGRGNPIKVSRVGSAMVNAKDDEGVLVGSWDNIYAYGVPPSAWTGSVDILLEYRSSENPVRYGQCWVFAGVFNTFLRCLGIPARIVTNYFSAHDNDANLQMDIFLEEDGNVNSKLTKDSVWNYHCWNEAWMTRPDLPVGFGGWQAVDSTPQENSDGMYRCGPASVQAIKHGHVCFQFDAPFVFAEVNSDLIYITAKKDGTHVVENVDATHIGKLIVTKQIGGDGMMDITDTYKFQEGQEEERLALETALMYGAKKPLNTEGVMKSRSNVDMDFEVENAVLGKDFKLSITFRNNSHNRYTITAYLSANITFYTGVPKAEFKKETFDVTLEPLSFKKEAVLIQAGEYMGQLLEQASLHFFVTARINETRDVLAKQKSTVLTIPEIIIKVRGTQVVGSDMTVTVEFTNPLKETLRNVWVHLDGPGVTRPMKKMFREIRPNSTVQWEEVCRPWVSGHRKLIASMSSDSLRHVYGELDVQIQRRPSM
# assay_notes: biochemical
# Assay type: biochemical
# experimental_parameters: Table 2; final variant concentration 5.45 μM; recombinant tridegin polypeptide normalized to 100%
quantity_measured: Relative inhibitory effect (%)

[
  {
    "molecule": "M48A: modified tridegin, XnY mutation of SEQ ID No. 1, expressed in Escherichia coli (protein) MKLLPCKEWHQGIPNPRCWCGADLECAQDQYCAFIPQCRPRSELIKPADDIYQRPVEFPNLPLKPREE",
    "readout_value": "91%"
  },
  {
    "molecule": "K07A: modified tridegin, XnY mutation of SEQ ID No. 1, expressed in Escherichia coli (protein) MKLLPCAEWHQGIPNPRCWCGADLECAQDQYCAFIPQCRPRSELIKPMDDIYQRPVEFPNLPLKPREE",
    "readout_value": "90%"
  },
  {
    "molecule": "L24A: modified tridegin, XnY mutation of SEQ ID No. 1, expressed in Escherichia coli (protein) MKLLPCKEWHQGIPNPRCWCGADAECAQDQYCAFIPQCRPRSELIKPMDDIYQRPVEFPNLPLKPREE",
    "readout_value": "92%"
  }
]
